experiment_summary: Part 2: plasma and whole blood PK after a single oral 600-mg dose of 14C-ziritaxestat
Format: in vivo, human
test_context: human; ziritaxestat in plasma; single oral 600 mg 14C-ziritaxestat; n = 6; mean (SD); read-out: AUC24
experimental_readout: AUC (ng·h/mL)
Give just the numeric value; ng·h/mL need not be written.

Q. For CCc1nc2c(C)cc(N3CCN(CC(=O)N4CC(O)C4)CC3)cn2c1N(C)c1nc(-c2ccc(F)cc2)c(C#N)s1 , write its AUC.
A. 47900

====

experiment_summary: Part 2: plasma and whole blood PK after a single oral 600-mg dose of 14C-ziritaxestat
Format: in vivo, human
test_context: human; ziritaxestat in plasma; single oral 600 mg 14C-ziritaxestat; n = 5; mean (SD)
experimental_readout: half-life (h)
Return type: number; implicit unit h.

Q. Write down half-life measured for item CCc1nc2c(C)cc(N3CCN(CC(=O)N4CC(O)C4)CC3)cn2c1N(C)c1nc(-c2ccc(F)cc2)c(C#N)s1
A. 10.6

====

experiment_summary: Part 2: plasma and whole blood PK after a single oral 600-mg dose of 14C-ziritaxestat
Format: in vivo, human
test_context: human; ziritaxestat in plasma; single oral 600 mg 14C-ziritaxestat; n = 6; mean (SD)
experimental_readout: Cmax (ng/mL)
Write it as a number; the unit ng/mL goes unstated.

Q. Supply recorded Cmax for CCc1nc2c(C)cc(N3CCN(CC(=O)N4CC(O)C4)CC3)cn2c1N(C)c1nc(-c2ccc(F)cc2)c(C#N)s1 here.
A. 10700

====

experiment_summary: Part 1 absolute bioavailability: plasma PK after oral 600 mg ziritaxestat and 15-minute IV infusion of 100 μg 14C-ziritaxestat microtracer
Format: in vivo, human
test_context: human; ziritaxestat in plasma; oral 600 mg; n = 6; mean (SD)
experimental_readout: half-life

Q. Specify measured half-life for CCc1nc2c(C)cc(N3CCN(CC(=O)N4CC(O)C4)CC3)cn2c1N(C)c1nc(-c2ccc(F)cc2)c(C#N)s1 .
A. 7 h

====

experiment_summary: Part 2: plasma and whole blood PK after a single oral 600-mg dose of 14C-ziritaxestat
Type: in vivo, human
test_context: human; ziritaxestat in plasma; single oral 600 mg 14C-ziritaxestat; n = 5; mean (SD)
experimental_readout: AUC(0-inf)

Q. Give recorded AUC(0-inf). CCc1nc2c(C)cc(N3CCN(CC(=O)N4CC(O)C4)CC3)cn2c1N(C)c1nc(-c2ccc(F)cc2)c(C#N)s1
A. 50500 ng·h/mL

====

experiment_summary: Part 2: plasma and whole blood PK after a single oral 600-mg dose of 14C-ziritaxestat
Assay type: in vivo, human
test_context: human; ziritaxestat in plasma; single oral 600 mg 14C-ziritaxestat; n = 6; median (range)
experimental_readout: Tmax (h)
Respond numerically; units are h and should not be typed.

Q. Determine its reported Tmax: CCc1nc2c(C)cc(N3CCN(CC(=O)N4CC(O)C4)CC3)cn2c1N(C)c1nc(-c2ccc(F)cc2)c(C#N)s1
A. 1.75

====

experiment_summary: Part 1 absolute bioavailability: plasma PK after oral 600 mg ziritaxestat and 15-minute IV infusion of 100 μg 14C-ziritaxestat microtracer
Type: in vivo, human
test_context: human; ziritaxestat in plasma; oral 600 mg; n = 6; mean (SD)
experimental_readout: Cmax (ng/mL)
Lab book: enter the figure in ng/mL, no units written.

Q. State, in one line, measured Cmax of CCc1nc2c(C)cc(N3CCN(CC(=O)N4CC(O)C4)CC3)cn2c1N(C)c1nc(-c2ccc(F)cc2)c(C#N)s1
A. 8400

====

experiment_summary: Part 1 absolute bioavailability: plasma PK after oral 600 mg ziritaxestat and 15-minute IV infusion of 100 μg 14C-ziritaxestat microtracer
Assay type: in vivo, human
test_context: human; ziritaxestat in plasma; oral 600 mg; n = 6; mean (SD)
experimental_readout: AUC(0-t) (ng·h/mL)
Note: unit ng·h/mL is implicit; provide only the numeric part.

Q. Kindly indicate its recorded AUC(0-t). Item: CCc1nc2c(C)cc(N3CCN(CC(=O)N4CC(O)C4)CC3)cn2c1N(C)c1nc(-c2ccc(F)cc2)c(C#N)s1
A. 40000

====

experiment_summary: Part 2: plasma and whole blood PK after a single oral 600-mg dose of 14C-ziritaxestat
Type: in vivo, human
test_context: human; ziritaxestat in plasma; single oral 600 mg 14C-ziritaxestat; n = 6; mean (SD)
experimental_readout: AUC(0-t) (ng·h/mL)
The reply should contain only the number, in ng·h/mL.

Q. Give AUC(0-t) for CCc1nc2c(C)cc(N3CCN(CC(=O)N4CC(O)C4)CC3)cn2c1N(C)c1nc(-c2ccc(F)cc2)c(C#N)s1
A. 49100
